biological target: DAPK1 (Homo sapiens, UniProt P53355)
Sequence (P53355 1-285): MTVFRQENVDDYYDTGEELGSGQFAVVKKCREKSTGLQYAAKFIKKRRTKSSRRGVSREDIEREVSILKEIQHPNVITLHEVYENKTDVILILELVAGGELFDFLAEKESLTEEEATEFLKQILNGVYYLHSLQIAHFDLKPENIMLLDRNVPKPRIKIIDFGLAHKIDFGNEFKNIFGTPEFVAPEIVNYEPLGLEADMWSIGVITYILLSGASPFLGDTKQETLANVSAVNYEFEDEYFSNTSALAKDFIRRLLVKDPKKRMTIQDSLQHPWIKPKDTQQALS
Value kind: IC50

Sample smiles: COc1cc(-c2ccc3ncc(-c4cccc(C(=O)NCCN(C)C)c4)n3n2)ccc1O
Measured on: DAPK1 (Homo sapiens, UniProt P53355)
Value kind: IC50
Value: 247 nM

----------
molecular target: UniProt:Q9P286
Sequence (Q9P286 whole entry, species assumed): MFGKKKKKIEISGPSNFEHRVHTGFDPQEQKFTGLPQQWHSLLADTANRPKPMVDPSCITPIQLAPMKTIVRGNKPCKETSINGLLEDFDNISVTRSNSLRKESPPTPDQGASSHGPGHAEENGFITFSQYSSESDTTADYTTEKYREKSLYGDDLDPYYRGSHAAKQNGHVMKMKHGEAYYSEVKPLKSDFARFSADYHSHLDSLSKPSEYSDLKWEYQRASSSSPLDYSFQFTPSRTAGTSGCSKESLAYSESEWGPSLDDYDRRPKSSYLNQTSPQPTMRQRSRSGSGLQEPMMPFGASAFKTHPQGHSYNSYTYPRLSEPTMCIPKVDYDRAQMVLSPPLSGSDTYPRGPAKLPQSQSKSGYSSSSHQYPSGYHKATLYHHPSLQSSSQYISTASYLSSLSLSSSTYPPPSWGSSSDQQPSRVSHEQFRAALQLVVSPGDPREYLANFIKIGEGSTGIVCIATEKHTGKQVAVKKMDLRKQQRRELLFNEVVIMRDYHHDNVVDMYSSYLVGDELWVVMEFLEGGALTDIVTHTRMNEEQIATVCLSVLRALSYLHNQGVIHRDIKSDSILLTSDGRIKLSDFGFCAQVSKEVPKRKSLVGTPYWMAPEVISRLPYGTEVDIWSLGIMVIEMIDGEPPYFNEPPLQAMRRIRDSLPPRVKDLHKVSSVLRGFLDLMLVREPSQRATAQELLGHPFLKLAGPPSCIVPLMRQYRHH
Value kind: IC50 (µM)

Sample smiles: COc1cc(-c2ccc3ncc(-c4cccc(C(=O)NCCN(C)C)c4)n3n2)ccc1O
Measured on: UniProt:Q9P286
Value: 5.6

----------
biological target: JAK2 (Homo sapiens, UniProt O60674)
Sequence (O60674 whole entry, species assumed): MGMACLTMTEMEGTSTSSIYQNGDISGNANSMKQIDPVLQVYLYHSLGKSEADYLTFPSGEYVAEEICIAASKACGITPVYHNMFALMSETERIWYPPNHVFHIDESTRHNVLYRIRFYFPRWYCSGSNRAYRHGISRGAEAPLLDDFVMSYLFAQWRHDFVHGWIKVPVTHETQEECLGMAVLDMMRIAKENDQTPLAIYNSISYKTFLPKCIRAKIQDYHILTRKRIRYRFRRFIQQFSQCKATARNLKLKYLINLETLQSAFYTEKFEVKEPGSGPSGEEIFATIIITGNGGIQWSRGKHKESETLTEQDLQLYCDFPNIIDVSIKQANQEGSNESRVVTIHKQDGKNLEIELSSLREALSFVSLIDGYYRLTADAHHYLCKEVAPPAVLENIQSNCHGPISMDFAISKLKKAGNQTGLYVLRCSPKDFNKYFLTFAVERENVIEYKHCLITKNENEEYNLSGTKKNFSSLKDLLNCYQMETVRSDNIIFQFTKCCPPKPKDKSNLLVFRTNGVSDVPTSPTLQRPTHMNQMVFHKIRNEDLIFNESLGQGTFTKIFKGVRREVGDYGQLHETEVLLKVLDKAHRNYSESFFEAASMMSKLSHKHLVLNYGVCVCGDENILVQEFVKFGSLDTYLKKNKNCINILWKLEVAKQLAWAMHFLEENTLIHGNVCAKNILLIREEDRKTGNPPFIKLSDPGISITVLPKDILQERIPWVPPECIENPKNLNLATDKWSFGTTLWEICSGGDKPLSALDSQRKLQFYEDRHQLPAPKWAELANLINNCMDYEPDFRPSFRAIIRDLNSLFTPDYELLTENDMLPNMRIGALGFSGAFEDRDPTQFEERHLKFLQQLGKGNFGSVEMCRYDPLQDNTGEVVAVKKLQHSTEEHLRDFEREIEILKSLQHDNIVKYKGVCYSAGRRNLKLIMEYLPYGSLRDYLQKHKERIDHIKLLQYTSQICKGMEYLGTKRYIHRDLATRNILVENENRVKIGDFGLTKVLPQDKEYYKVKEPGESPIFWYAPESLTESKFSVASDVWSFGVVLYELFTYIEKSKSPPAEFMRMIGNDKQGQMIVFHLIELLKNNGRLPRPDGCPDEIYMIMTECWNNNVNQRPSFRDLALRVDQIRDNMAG
Value kind: IC50 (nM)

Compound: COc1cc(-c2ccc3ncc(-c4cccc(C(=O)NCCN(C)C)c4)n3n2)ccc1O [Compound 6]
Measured on: JAK2 (Homo sapiens, UniProt O60674)
Value kind: IC50
Measurement units: nM
Value: 1800
